# System: motor function, mouse
# MEASUREMENT DESCRIPTION: horizontal screen test in mouse (impaired motor function, neurotoxicity; therapeutic index)
# Assay type: in vivo
# CONDITIONS USED: mouse, p.o., horizontal screen
METRIC NAME: neurotoxicity / impairment of motor coordination (in words)

COMPOUND	RESULT
C[C@H](NC1Cc2ccccc2C1)C(N)=O [CHF 3431, (S) 2-(2-indanylamino)propionamide]	more neurotoxic
Cl.NC(=O)CNC1Cc2ccccc2C1 [CHF 3381]	more neurotoxic

---

# MEASUREMENT DESCRIPTION: horizontal screen test in mouse (impaired motor function, neurotoxicity; therapeutic index)
# Format: in vivo
# CONDITIONS USED: horizontal screen test, po; mouse, p.o.; HCl salts; read-out: TD50 Horizontal screen
TD50 values, listed per item

MOLECULE	CMP	TD50 (mg/kg)
NC(=O)[C@@H](CO)N[C@H]1CCc2ccccc2C1	=	1300
NC(=O)[C@H](CO)N[C@@H]1CCc2ccccc2C1	=	1100
C[C@H](NC1Cc2ccccc2C1)C(N)=O [CHF 3431, (S) 2-(2-indanylamino)propionamide]	=	251
NC(=O)[C@@H](CO)NC1Cc2ccccc2C1	>	1500
